Data credit: patent US12049466B2

Give IC50 for every item shown.
Biological target: human recombinant USP30 (Homo sapiens, UniProt Q70CQ3)
Sequence (Q70CQ3 1-517): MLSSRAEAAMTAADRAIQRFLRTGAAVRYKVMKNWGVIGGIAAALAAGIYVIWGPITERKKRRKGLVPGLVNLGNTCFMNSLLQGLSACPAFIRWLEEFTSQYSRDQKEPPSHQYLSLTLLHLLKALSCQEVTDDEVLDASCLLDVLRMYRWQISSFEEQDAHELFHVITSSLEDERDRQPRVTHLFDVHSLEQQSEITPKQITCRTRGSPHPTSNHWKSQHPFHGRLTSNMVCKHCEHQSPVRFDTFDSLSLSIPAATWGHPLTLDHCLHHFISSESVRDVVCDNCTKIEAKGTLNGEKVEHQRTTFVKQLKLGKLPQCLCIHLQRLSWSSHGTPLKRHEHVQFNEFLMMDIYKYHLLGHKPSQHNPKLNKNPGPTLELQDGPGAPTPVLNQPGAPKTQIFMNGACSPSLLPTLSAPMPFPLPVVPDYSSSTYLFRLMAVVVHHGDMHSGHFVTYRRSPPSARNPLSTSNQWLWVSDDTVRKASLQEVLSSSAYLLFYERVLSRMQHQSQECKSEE
Test: Ubiquitin-Rhodamine 110 Assay for USP30 Activity (USP30 biochemical assay)
Settings: IC50 ranges; 0.4 nM enzyme, 25 nM Ub-Rh110, 30 min preincubation, test concentration 25 μM to 1.3 nM

So what's the measured IC50 for this one? N#CN1CCN2CCN(c3ncc(-c4cccc(CN5CCC5)c4)s3)C(=O)[C@@H]2C1 (single isomer, unassigned) [Compound 1-115S] 1000 to 10000 nM

What about N#CN1CCN2CCN(c3nc(Cl)c(C4CCCCC4)s3)C(=O)[C@@H]2C1 (single isomer, unassigned) ? < 100 nM

What about C[C@@]12CN(C#N)CCN1CCN(c1ncc(C3CCCCC3)s1)C2=O (single isomer, unassigned) [Compound 1-117S] ? 1000 to 10000 nM

What about N#Cc1cccc(-c2cnc(N3C[C@H]4CN(C#N)CC[C@H]4C3)nc2)c1 (single isomer, unassigned) ? > 25000 nM

What about CC(C)(C)c1sc(N2CCN3CCN(C#N)C[C@]3(F)C2=O)nc1Cl (single isomer, unassigned) [Compound 1-116S] ? 1000 to 10000 nM

What about N#CN1CCN2CCN(c3nc(Cl)c(C4CCCCC4)s3)C(=O)[C@H]2C1 (single isomer, unassigned) ? < 100 nM

What about N#CN1CC[C@@H]2CCN(c3ncc(C4CCCCC4)s3)C[C@@H]2C1 (single isomer, unassigned) ? 1000 to 10000 nM
